Test system: HeLa Kyoto;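 also: HeLa Kyoto cells synchronized by double thymidine or nocodazole block, proteins quantified by TMT10plex mass spectrometry, three independent biological replicates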
Assay: melting temperature (median over replicates), in situ; higher = more thermally stable
Details: cell cycle stage: G1/S
Listed here are sequences together with their documented melting temperature.

- macromolecule_sequence: "MANIAVQRIKREFKEVLKSEETSKNQIKVDLVDENFTELRGEIAGPPDTPYEGGRYQLEIKIPETYPFNPPKVRFITKIWHPNISSVTGAICLDILKDQWAAAMTLRTVLLSLQALLAAAEPDDPQDAVVANQYKQNPEMFKQTARLWAHVYAGAPVSSPEYTKKIENLCAMGFDRNAVIVALSSKSWDVETATELLLSN [UBE2K]"
  melting temperature: "53.2 °C"
- macromolecule_sequence: "MAAVVAKREGPPFISEAAVRGNAAVLDYCRTSVSALSGATAGILGLTGLYGFIFYLLASVLLSLLLILKAGRRWNKYFKSRRPLFTGGLIGGLFTYVLFWTFLYGMVHVY [EMC6]"
  melting temperature: "54.6 °C"
- macromolecule_sequence: "MSTAAVPELKQISRVEAMRLGPGWSHSCHAMLYAANPGQLFGRIPMRFSVLMQMRFDGLLGFPGGFVDRRFWSLEDGLNRVLGLGLGCLRLTEADYLSSHLTEGPHRVVAHLYARQLTLEQLHAVEISAVHSRDHGLEVLGLVRVPLYTQKDRVGGFPNFLSNAFVSTAKCQLLFALKVLNMMPEEKLVEALAAATEKQKKALEKLLPASS [NUDT16L1]"
  melting temperature: "52 °C"
- macromolecule_sequence: "MAPQNLSTFCLLLLYLIGAVIAGRDFYKILGVPRSASIKDIKKAYRKLALQLHPDRNPDDPQAQEKFQDLGAAYEVLSDSEKRKQYDTYGEEGLKDGHQSSHGDIFSHFFGDFGFMFGGTPRQQDRNIPRGSDIIVDLEVTLEEVYAGNFVEVVRNKPVARQAPGKRKCNCRQEMRTTQLGPGRFQMTQEVVCDECPNVKLVNEERTLEVEIEPGVRDGMEYPFIGEGEPHVDGEPGDLRFRIKVVKHPIFERRGDDLYTNVTISLVESLVGFEMDITHLDGHKVHISRDKITRPGAKLWKKGEGLPNFDNNNIKGSLIITFDVDFPKEQLTEEAREGIKQLLKQGSVQKVYNGLQGY [DNAJB11]"
  melting temperature: "54.7 °C"
- macromolecule_sequence: "MPKAKGKTRRQKFGYSVNRKRLNRNARRKAAPRIECSHIRHAWDHAKSVRQNLAEMGLAVDPNRAVPLRKRKVKAMEVDIEERPKELVRKPYVLNDLEAEASLPEKKGNTLSRDLIDYVRYMVENHGEDYKAMARDEKNYYQDTPKQIRSKINVYKRFYPAEWQDFLDSLQKRKMEVE [NOP16]"
  melting temperature: "57.3 °C"
- macromolecule_sequence: "MAACTARRALAVGSRWWSRSLTGARWPRPLCAAAGAGAFSPASTTTTRRHLSSRNRPEGKVLETVGVFEVPKQNGKYETGQLFLHSIFGYRGVVLFPWQARLYDRDVASAAPEKAENPAGHGSKEVKGKTHTYYQVLIDARDCPHISQRSQTEAVTFLANHDDSRALYAIPGLDYVSHEDILPYTSTDQVPIQHELFERFLLYDQTKAPPFVARETLRAWQEKNHPWLELSDVHRETTENIRVTVIPFYMGMREAQNSHVYWWRYCIRLENLDSDVVQLRERHWRIFSLSGTLETVRGRGVVGREPVLSKEQPAFQYSSHVSLQASSGHMWGTFRFERPDGSHFDVRIPPFSLESNKDEKTPPSGLHW [POLDIP2]"
  melting temperature: "50.9 °C"
